Reference source: patent US20250388544A1

For each of the compounds below, state its remaining activity at 200 µM.
target-desc: hADAM 10 (Homo sapiens)
Construct: purchased R&D systems
Sequence (O14672 214-748): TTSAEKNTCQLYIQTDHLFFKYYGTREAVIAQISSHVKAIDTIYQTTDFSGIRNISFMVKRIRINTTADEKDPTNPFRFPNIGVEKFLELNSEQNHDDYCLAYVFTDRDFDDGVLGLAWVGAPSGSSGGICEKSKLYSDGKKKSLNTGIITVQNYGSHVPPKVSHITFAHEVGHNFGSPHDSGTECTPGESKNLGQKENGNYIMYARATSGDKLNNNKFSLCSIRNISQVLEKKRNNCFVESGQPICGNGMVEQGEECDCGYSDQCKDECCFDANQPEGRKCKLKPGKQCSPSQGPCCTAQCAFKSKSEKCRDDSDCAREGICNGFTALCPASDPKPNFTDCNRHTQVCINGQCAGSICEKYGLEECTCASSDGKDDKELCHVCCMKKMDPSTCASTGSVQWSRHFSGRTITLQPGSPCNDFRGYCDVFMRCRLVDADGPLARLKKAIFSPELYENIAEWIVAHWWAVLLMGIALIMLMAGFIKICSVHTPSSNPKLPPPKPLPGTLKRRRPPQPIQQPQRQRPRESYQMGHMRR
protocol-details: Residual enzyme activity of other metalloproteases
Format: biochemical
applied-conditions: 200 μM inhibitor; read-out: Residual enzyme activity ADAM10
Reply numerically in %, unit not repeated.

Query :: State, in one line, measured remaining activity at 200 µM of O=C(Cn1c(-c2ccccc2)nnc1-c1ccccc1)NO [Example 7]
Result :: 83

Query :: Please report remaining activity at 200 µM for the following compound: O=C(CCc1c(-c2ccccc2)n[nH]c1-c1ccccc1)NO [Example 3]
Result :: 12

Query :: Let me know recorded remaining activity at 200 µM for O=C(Cc1c(-c2ccccc2)nn(Cc2ccc(Cl)c(O)c2F)c1-c1ccccc1)NO [Example 42] , thanks.
Result :: 34

Query :: Return reported remaining activity at 200 µM. Input compound: O=C(Cc1c(-c2ccccc2)nn(Cc2ccc3c(c2)OCO3)c1-c1ccccc1)NO [Example 43]
Result :: 39

Query :: Return remaining activity at 200 µM for the following compound: O=C(Cc1c(-c2cc(F)c(O)c(Cl)c2)n[nH]c1-c1ccccc1)NO [Example 54]
Result :: 61

Query :: Identify remaining activity at 200 µM associated with the compound O=C(Cn1c(-c2ccccc2)ccc1-c1ccccc1)NO [Example 9]
Result :: 29

Query :: In one line, give reported remaining activity at 200 µM of the entry O=C(Cc1c(-c2cccc(C(=O)O)c2)n[nH]c1-c1ccc(Cl)c(O)c1F)NO [Example 63] .
Result :: 74

Query :: Identify measured remaining activity at 200 µM associated with O=C(Cc1c(-c2ccc3c(c2)OCO3)n[nH]c1-c1ccccc1)NO [Example 50]
Result :: 5

Query :: Please supply the value of reported remaining activity at 200 µM for the item O=C(Cn1c(-c2ccccc2)cc2ccccc21)NO [Example 25]
Result :: 68
